Where these numbers come from: ChEMBL document CHEMBL1156184

Experiment: Selectivity index, ratio of CC50 for human MT4 cells to EC50 for HIV1 3B
Assay type: toxicity, cell-based
Conditions: read-out: Ratio CC50/EC50
Where selectivity ratio equals or exceeds 200, the correct label is 1.0; where it does not, the label is 0.0.

Consider the worked cases shown below.
{"SMILES TEXT": "N#Cc1ccc(Nc2nccc(/C(=N\\O)c3ccccc3Br)n2)cc1", "LABEL": 1.0}
{"SMILES TEXT": "N#Cc1ccc(Nc2nccc(/C(=N\\O)c3ccc4ccccc4c3)n2)cc1", "LABEL": 1.0}
{"SMILES TEXT": "N#Cc1ccc(Nc2nccc(/C(=N\\O)c3ccccc3F)n2)cc1", "LABEL": 0.0}
{"SMILES TEXT": "Cc1ccc(/C(=N/O)c2ccnc(Nc3ccc(C#N)cc3)n2)cc1", "LABEL": 1.0}
{"SMILES TEXT": "N#Cc1ccc(Nc2nccc(/C(=N\\O)c3cccc(F)c3)n2)cc1", "LABEL": 0.0}

Now, please, on to the next molecule.
*Q* Say whether `CC(C)(C)c1ccc(/C(=N/O)c2ccnc(Nc3ccc(C#N)cc3)n2)cc1` shows selectivity ratio of 200 or more.
*A* 1.0
